Target: T1, C-terminal hexahistidine-tagged FPR (human, UniProt P21462 1-350)
T1 construct: Construct limits and junction are not described; also called FPR:C-H6; C-H6:FPR
T1 sequence: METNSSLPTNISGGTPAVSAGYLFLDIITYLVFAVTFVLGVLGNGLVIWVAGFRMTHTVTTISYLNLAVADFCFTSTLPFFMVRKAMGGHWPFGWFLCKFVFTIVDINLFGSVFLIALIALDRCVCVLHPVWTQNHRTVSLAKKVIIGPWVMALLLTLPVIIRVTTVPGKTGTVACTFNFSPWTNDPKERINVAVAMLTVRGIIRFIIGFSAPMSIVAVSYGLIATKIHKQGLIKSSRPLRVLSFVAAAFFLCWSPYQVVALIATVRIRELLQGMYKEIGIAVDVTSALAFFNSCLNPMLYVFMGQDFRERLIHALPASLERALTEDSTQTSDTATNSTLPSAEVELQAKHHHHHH
Test: receptor on DCNi beads, flow cytometry
No end group written: not given here. *: point of attachment. For = O=C*
test_readout: pKd
Recall that pKd is obtained by taking minus log10 of the concentration measured in molar.

Incoming: Quote pKd reported for For-MLFK (also: FITC conjugated, site not given here, everywhere else it is fMLFK-FITC; also called fMLFK-FITC; fluorescent ligand) [formyl-MLFK-FITC] please.
Outgoing: 8.40
